tested on: 743489-274-T-PDC complex spheroid viability; assay: Anticancer human tumor 743489-274-T-PDC patient-derived renal cell carcinoma cell line growth inhibition; details: curve of first compound; second compound 3.16 µM
Item-by-item account of IC50

compound="CC(C)c1c(-c2ccccc2)nc2c(C#N)c[nH]n2c1=O + NC1CCC(NC2CC2c2ccccc2)CC1" study_target="743489-274-T-PDC complex spheroid viability" value_reported="> 10000 nM"
compound="CCN(c1cc(-c2ccc(CN3CCOCC3)cc2)cc(C(=O)NCc2c(C)cc(C)[nH]c2=O)c1C)C1CCOCC1 + NC1CCC(NC2CC2c2ccccc2)CC1" study_target="743489-274-T-PDC complex spheroid viability" value_reported="> 3000 nM"
compound="Nc1ccn(C2OC(CO)C(O)C2(F)F)c(=O)n1 (stereo not drawn) + NC1CCC(NC2CC2c2ccccc2)CC1" study_target="743489-274-T-PDC complex spheroid viability" value_reported="> 300 nM"
compound="COc1ccc([C@@H](O)c2cc(-c3ncnc4cc(N5CCOCC5)ccc34)c(F)cc2Cl)nn1 + NC1CC1c1ccc(-c2cccc(O)c2)cc1" study_target="743489-274-T-PDC complex spheroid viability" value_reported="611 nM"

Please find the next compound below.
Report IC50 for Nc1ncn(C2CC(O)C(CO)O2)c(=O)n1 (stereo not drawn) + NC1CC1c1ccc(-c2cccc(O)c2)cc1 tested on 743489-274-T-PDC complex spheroid viability.
> 1000 nM

* * *

tested on: 743489-274-T-PDC complex spheroid viability; experiment: Anticancer human tumor 743489-274-T-PDC cell line growth inhibition; conditions: curve of first compound; second compound 3.16 µM;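 also: spheroids exposed to compounds for 7 days before readout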
pIC50: −log10 of the molar value.
Item-by-item account of pIC50

Below: 5 compounds and their reported pIC50.
compound="CC[C@@]1(O)C(=O)OCc2c1cc1n(c2=O)Cc2cc3c(CN(C)C)c(O)ccc3nc2-1 + NC1CCC(NC2CC2c2ccccc2)CC1" value_reported="< 7.00"
compound="CC1(C)CCC(CN2CCN(c3ccc(C(=O)NS(=O)(=O)c4ccc(NCC5CCOCC5)c([N+](=O)[O-])c4)c(Oc4cnc5[nH]ccc5c4)c3)CC2)=C(c2ccc(Cl)cc2)C1 + NC1CC1c1ccc(-c2cccc(O)c2)cc1" value_reported="< 5.00"
compound="CC1COCCN1c1cc(C2(S(C)(=N)=O)CC2)nc(-c2ccnc3[nH]ccc23)n1 (centres undefined) + NC1CC1c1ccc(-c2cccc(O)c2)cc1" value_reported="< 5.00"
compound="O=C(C=Cn1cnc(-c2cc(C(F)(F)F)cc(C(F)(F)F)c2)n1)NNc1cnccn1 + NC1CC1c1ccc(-c2cccc(O)c2)cc1" value_reported="< 6.00"
compound="CC1COCCN1c1cc(-c2ccnn2C)c2ccnc(-c3ccn[nH]3)c2n1 (centres undefined) + NC1CCC(NC2CC2c2ccccc2)CC1" value_reported="< 6.00"

Name the reported pIC50 value associated with the compound O=C(c1cc(Cc2n[nH]c(=O)c3ccccc23)ccc1F)N1CCN(C(=O)C2CC2)CC1 + NC1CC1c1ccc(-c2cccc(O)c2)cc1
< 5.00

Name the reported pIC50 value associated with the compound COc1cc(Nc2ncc3c(n2)-c2ccc(Cl)cc2C(c2c(F)cccc2OC)=NC3)ccc1C(=O)O + NC1CC1c1ccc(-c2cccc(O)c2)cc1
< 6.00

Name the reported pIC50 value associated with the compound CC(C)CC(NC(=O)C(Cc1ccccc1)NC(=O)c1cnccn1)B(O)O (centres undefined) + NC1CCC(NC2CC2c2ccccc2)CC1
8.07

Name the reported pIC50 value associated with the compound Nc1ccn(C2OC(CO)C(O)C2(F)F)c(=O)n1 (centres undefined) + NC1CC1c1ccc(-c2cccc(O)c2)cc1
7.59

Name the reported pIC50 value associated with the compound Cn1ncnc1C1c2n[nH]c(=O)c3cc(F)cc(c23)NC1c1ccc(F)cc1 (centres undefined) + NC1CCC(NC2CC2c2ccccc2)CC1
< 7.00

Name the reported pIC50 value associated with the compound CC1COCCN1c1cc(C2(S(C)(=N)=O)CC2)nc(-c2ccnc3[nH]ccc23)n1 (centres undefined) + NC1CCC(NC2CC2c2ccccc2)CC1
< 5.00

Name the reported pIC50 value associated with the compound COc1cc(C2c3cc4c(cc3C(OC3OC5COC(C)OC5C(O)C3O)C3COC(=O)C23)OCO4)cc(OC)c1O (centres undefined) + NC1CC1c1ccc(-c2cccc(O)c2)cc1
< 5.52

Name the reported pIC50 value associated with the compound COc1cc(C2c3cc4c(cc3C(OC3OC5COC(C)OC5C(O)C3O)C3COC(=O)C23)OCO4)cc(OC)c1O (centres undefined) + NC1CCC(NC2CC2c2ccccc2)CC1
< 5.52

Name the reported pIC50 value associated with the compound O=C(c1cc(Cc2n[nH]c(=O)c3ccccc23)ccc1F)N1CCN(C(=O)C2CC2)CC1 + NC1CCC(NC2CC2c2ccccc2)CC1
< 5.00

* * *

tested on: 743489-274-T-PDC complex spheroid viability; assay: Anticancer human tumor 743489-274-T-PDC cell line growth inhibition; conditions: curve of first compound; second compound 3.16 µM;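 also: spheroids exposed to compounds for 7 days before readout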
Item-by-item account of IC50
Numeric only. Scale: µM

Below: 2 molecules and their reported IC50.
molecule="Nc1ccccc1NC(=O)c1ccc(CNC(=O)OCc2cccnc2)cc1 + NC1CCC(NC2CC2c2ccccc2)CC1" study_target="743489-274-T-PDC complex spheroid viability" measured_quantity=IC50 value_reported=1.78
molecule="CC(C)CC(NC(=O)C(Cc1ccccc1)NC(=O)c1cnccn1)B(O)O (stereo unspecified) + NC1CC1c1ccc(-c2cccc(O)c2)cc1" study_target="743489-274-T-PDC complex spheroid viability" measured_quantity=IC50 value_reported=0.00795

Please find the next molecule below.
Name the reported IC50 value associated with the molecule O=C(C=Cc1cccc(S(=O)(=O)Nc2ccccc2)c1)NO + NC1CC1c1ccc(-c2cccc(O)c2)cc1
0.915

* * *

system: 743489-274-T-PDC complex spheroid viability; assay: Anticancer human tumor 743489-274-T-PDC cell line growth inhibition; settings: second compound 0.316 µM; first compound 0.00949 µM; stronger effect = lower value;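 also: spheroids exposed to compounds for 7 days before readout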;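 as to viability, T/C: 100% = DMSO vehicle control wells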
Item-by-item account of viability, T/C
Numeric only. Scale: %

Below: 8 compounds and their reported viability, T/C.
compound="O=C(C=Cc1cccc(S(=O)(=O)Nc2ccccc2)c1)NO + NC1CC1c1ccc(-c2cccc(O)c2)cc1" value_reported=102
compound="Nc1ncn(C2CC(O)C(CO)S2)c(=O)n1 (centres undefined) + NC1CCC(NC2CC2c2ccccc2)CC1" value_reported=120
compound="Nc1ccccc1NC(=O)c1ccc(CNC(=O)OCc2cccnc2)cc1 + NC1CC1c1ccc(-c2cccc(O)c2)cc1" value_reported=95.7
compound="CCc1c2c(nc3ccc(O)cc13)-c1cc3c(c(=O)n1C2)COC(=O)[C@]3(O)CC + NC1CC1c1ccc(-c2cccc(O)c2)cc1" value_reported=45.5
compound="NS(=O)(=O)OCC1CC(n2ccc3c(NC4CCc5ccccc54)ncnc32)CC1O (centres undefined) + NC1CCC(NC2CC2c2ccccc2)CC1" value_reported=92.8
compound="Nc1ncn(C2CC(O)C(CO)S2)c(=O)n1 (centres undefined) + NC1CC1c1ccc(-c2cccc(O)c2)cc1" value_reported=90.6
compound="Nc1ccn(C2OC(CO)C(O)C2(F)F)c(=O)n1 (centres undefined) + NC1CC1c1ccc(-c2cccc(O)c2)cc1" value_reported=99.8
compound="Nc1ccccc1NC(=O)c1ccc(CNC(=O)OCc2cccnc2)cc1 + NC1CCC(NC2CC2c2ccccc2)CC1" value_reported=116

Name the reported viability, T/C value associated with the compound CCN(c1cc(-c2ccc(CN3CCOCC3)cc2)cc(C(=O)NCc2c(C)cc(C)[nH]c2=O)c1C)C1CCOCC1 + NC1CCC(NC2CC2c2ccccc2)CC1
91.1

* * *

Item-by-item account of pIC50
system: 743489-274-T-PDC complex spheroid viability; assay: Anticancer human tumor 743489-274-T-PDC cell line growth inhibition; conditions: curve of first compound; second compound 10 µM;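 also: spheroids exposed to compounds for 7 days before readout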
pIC50: −log10 of the molar value.

Below: 3 molecules and their reported pIC50.
molecule="CC1COCCN1c1cc(C2(S(C)(=N)=O)CC2)nc(-c2ccnc3[nH]ccc23)n1 (centres undefined) + NC1CC1c1ccc(-c2cccc(O)c2)cc1" study_target="743489-274-T-PDC complex spheroid viability" measured_quantity=pIC50 value_reported="< 5.00"
molecule="CCN(c1cc(-c2ccc(CN3CCOCC3)cc2)cc(C(=O)NCc2c(C)cc(C)[nH]c2=O)c1C)C1CCOCC1 + NC1CCC(NC2CC2c2ccccc2)CC1" study_target="743489-274-T-PDC complex spheroid viability" measured_quantity=pIC50 value_reported="< 5.52"
molecule="Nc1ncn(C2CC(O)C(CO)S2)c(=O)n1 (centres undefined) + NC1CC1c1ccc(-c2cccc(O)c2)cc1" study_target="743489-274-T-PDC complex spheroid viability" measured_quantity=pIC50 value_reported="< 6.52"

Please find the next molecule below.
Report pIC50 for COc1cc(Nc2ncc3c(n2)-c2ccc(Cl)cc2C(c2c(F)cccc2OC)=NC3)ccc1C(=O)O + NC1CCC(NC2CC2c2ccccc2)CC1 tested on 743489-274-T-PDC complex spheroid viability.
< 6.00
